Assay details: yeast display, Sf9 membrane polyspecificity reagent, FACS + sequencing; frameworks hold sequencing errors
Measure name: polyreactivity (PSR sort gate)

INSERT INTO measurements (sequence, reported) VALUES
  ('QVQLVESGGGLVQAGGSLRLSCAASGFTFPYYAMGWYRQAPGKERELVAAISSGGNTNYADSVKGRFTISRDNAKNTVYLQMNSLKPEDTAVYYCAAVFLRYLNWSVKYDYWGQGTQVTVSS', 'low polyreactivity'),
  ('QVQLVESGGGLVQAGGSLRLSCAASGFIFWPYVMGWYRQEPGTDRELVAAISLGDGSTYYADSVKGRFRLSRDHAKNTVYLQMNSLKPEDTAVYYCAADVTVAWYPVYPGFYYWGQGTQVTVSS', 'low polyreactivity'),
  ('QVQLVESGGGLVQAGGSLRLSCAASGSIFPHNAMGWYRTAPGKDRELVAAISWRDVISYYADSVKGRFTISRDNAKNTVYLQMNSLKPEDTAVYYCAAELRVYGVDYEYWGQGTQVTVSS', 'high polyreactivity'),
  ('QVQIVESGAVIVQAGGSLRLSCAASGSTFGSYTMGWYRQAPGKERELVASISRDGRTKYADSVKGRFTISRDNATNTVYLQMKSLKPEDTAVYYCANSKWRGRGGTYDYWGQVTQVTVSS', 'high polyreactivity'),
  ('QVQLVESGGGLVQAGGSLRLSCAASGLTFYTNAKGWYRQAPGKEREFVDAITSSGGRKYYADSVKGRFTISRDNAKNTVYLQMNSLKPEDTAVYYCAADARRPRIPEMYYWGQGTQVTVSS', 'high polyreactivity'),
  ('QVQLVESGGGLVQAGGSLRLSCAASGRTFWNYAMGWYRQAPGKERELVAVIRFSDGSTYYADSVKGRFTISRDNAKNTVYLQMNSLKPEDTAVYYCAADDLLDYDYWGQGTQVTVSS', 'low polyreactivity'),
  ('QVQLVESGGALVQAGGSLRLSCAASGRIFWHNAMGWYRQAPGKERELVAAISSRGGSTSYADSVKGLFTISRDNAKNTVYLQMNSLKPEETAVYYCNARNQAYYRVWGYRGDYWGQGTQVTVSS', 'low polyreactivity'),
  ('QVQLVESGGGLVQAGGSLRLSCAASGIIFKVNDMGWYRQAHGKEREFVAAITYSGDGTFYADSVKGRFTISRDNAKNTVYLQMNSLKPEDTAVYYCAADLPESPESYYDTDDYWGQGPQVTVSS', 'low polyreactivity'),
  ('QVQLVESGGGLVQAGGSLRLSCAASGSTFQFYAMGWYRQAPGKERELVAAIRSSDDSTYYADSVKGRFTISRDNAKNTVYLQMNSLKPEDTAVYYCAAVQDYYGVWYDYWGQGTQVTVSS', 'high polyreactivity'),
  ('QVQLVESVGGLVQAGGSLRLSCAASGITFYWYAMGWYRQAPGKERELVASITGNGGGTSYADSVKGRFTISRDNAKNTVYLQMNSLKPEDTAVYYCNTSVGGKEYDSWGQGTQVTVSS', 'low polyreactivity'),
  ('QVQLVESGGGLVQAGGSLRLSCAASGFTFNRYAMGWYRQAPGKERELVARITRGGSTKYADSVKGRFTISRDNAKNTVYLQMNSLKPEDTAVYYCAADYGGFLGYDYWGQGTQVTVSS', 'high polyreactivity'),
  ('QVQLVESGGGLVQAGGSLRLSCAASASISDSYAMGRYRQAPGKERELVAAITSGDSTYYADSVKGRFTISRDNAKNTLYLQMNSLKPEDTAVYYCAKRVSRGRGYGFTDWSEYDYWGQGTQVTVSS', 'low polyreactivity'),
  ('QVQLVESGGGLVQAGGSLRLSCAASGFTFPKYAMGWYRQAPGKERELVAGITTGGSTYYADSVKGRFTISRDNAKNTVYLQMNSLKPEDTAVYYCAASGRLSLGGRFYDLGLRYDYWGQGTQVTVSS', 'low polyreactivity'),
  ('QVQLVESGGGLVQAGGSLRLSCAASGRTFIFNAMGWYRQAPGKERELVAAISSGGGTNYADSVKWRFTISRDNAKNTVYLQMNSMKPEDTAVYYCAAVPRDHYSYVYDGDKYDYWGQGTQVTVSS', 'low polyreactivity'),
  ('QVQLVESGGGLVQAGGSLRLSCAASGRIFGKNAMGWYIQAPRKERDLVAAITSTGGTTYYADSVMGRFTISRDNAKNTVYLQMNSLKPEDSAVYDCAKDGQTNNETQGLKYDYWGQGTQLTVSS', 'low polyreactivity'),
  ('QVQLVDSGGGLVQAGGSLRLTCAACGSIFVNNSMGWSRQATGKQRELVAAISSRSSRTFYADSVKGRFTISRDNEKNTVFLQMNSLKPEDNAVYYCAVKKRAPDGDYWGLGTQVTVSS', 'high polyreactivity'),
  ('QVQLVESGGGLVQAGGSLRLSCAASGIILVNNAMGWYRQAPGTEREFVAAIRYSAGSTYYADSVKGRFTISRDTAKNTVYLQMNSLKAEDTAVYYCARRWKGGWYEYGYWGQGTQVTVAS', 'high polyreactivity'),
  ('QVQLVESGGGLVQAGGSLRLSCAASGRIFGYNAMGWYRQAPGKERELVAAITNGGSTNYADSVKGRFTISRDNAKNTVYLQMNSLKPEDTAVYYCAVKWYPPGHDYWGQGTQVTVSS', 'low polyreactivity'),
  ('QVQLVESGGGLVQAGGSLRLSCAASGFTFGYNAMGWYRQTPGKERELVAVITQSGGRTYYADSVKGRFTISRDNAKNTVYLQMNSLKPEDTAVYYCAARYRLPPYYYWGQGTQVTVSS', 'high polyreactivity'),
  ('QVQLVESGGGLVQAGGSLRLSSAASGRTFYLNAMGWYRQAPGKERELVAAIRISGGSTYYADSVKGRFTISRDNAKNTVYLQMKSLKPEDTAVYYCIAGPYHALSPTVSEYGYWGQGSQVTVSS', 'low polyreactivity'),
  ('QVQLVESGPGLVQAGGSLRLSSAASGLTFRWNGMGWYRQATGKERELVAAITGNAGSTYYADSVKGRFTISRDNAKNTVYLQMKSLNPEDTAVYYCAARLRYYYLVGYGYWGQGTQVTVSS', 'high polyreactivity');

###

Assay details: yeast display, Sf9 membrane polyspecificity reagent, FACS + sequencing; frameworks hold sequencing errors
Measure name: polyreactivity (PSR sort gate)

INSERT INTO assay_data (sequence, measure_name, reported) VALUES
  ('QVQLVESGGGLVQAGGSLRLSCAASGSMFGYYAMGWYRQATGKERELVASIRRGSSTNYADSVKGRFTISRDNAKNTVYLQMNSLKPEDTAVYYCNAVLLSYDARGYSNLYDYWGQGPQVTVSS', 'polyreactivity (PSR sort gate)', 'low polyreactivity'),
  ('QVQLVESGGGLVQAGGSLRLSCAASGFTFFTNAMGWYRQAPGKERELVATITSNGSTNYADSVKGRFTISRDNAKNTVYLQMISLKPEDTAVYYCAADQDSVSMDYWGQGTQVTVSS', 'polyreactivity (PSR sort gate)', 'low polyreactivity'),
  ('QVQLVESGGGLVQAGGSLRLSCAASGSIFLSYAMGSYREAPGKERELVATITAGGGSTNYADSVKGRFTISRDNAKNTVYLQMNSLKPEDTAVYYCAAKRLSWHGYGYWGQGTQVTVSS', 'polyreactivity (PSR sort gate)', 'low polyreactivity'),
  ('QVQLVESGGGLVQAGGSLRLSCAASGYIFAVYAMGWYRQAPGKEREFVAVITWRGGSTYYADSVKGRFTISRDNAKNTVYLQMNSLKPEDTAVYYCAADVYAQYDYWGQGTQVTVSS', 'polyreactivity (PSR sort gate)', 'high polyreactivity'),
  ('QVQLVESGGGLFQAGGTLRLSCAATGITFRWYAMGWYRQAPGKEMELVAAITYRGGSTHYSDSVKGRFTISRDNAKNTVYLQMNSLKPEDTAVYYCAVRRWPRYRWSDYWGQGTQVTLSS', 'polyreactivity (PSR sort gate)', 'low polyreactivity'),
  ('QVQLVESGGGLVQAGGSRRIICAASGSIFGYYAMGWYRQAPGKEREFVAAISGRGSSTYYADSVKGRFTISRDNAQNTVYLQMNSLKPEDTAVYYCARVTYKHYGYWGQGTQVTVSS', 'polyreactivity (PSR sort gate)', 'high polyreactivity'),
  ('QVQLLESGGGFVQEGGSLRLICAASGLTFYYNAMGWYRQAPGTERELVAAISFSGGRTYYADSVKGRFTISRDNAQNTVYLQMNSLKPEDTAVYYCAARVPRYRKDSVWAYYYWGQGTQVTVSS', 'polyreactivity (PSR sort gate)', 'high polyreactivity'),
  ('QVQLVESGGGLDQAGGSLRLSCAASGSIFYRNAMGWYRKAPGKERELVAAISWSGSRTYYADSVKVRFTISRDNAKNTVYLQMISLKPEDTAVYYCNRQYNQWIHYYYRMDYWGQGNQVTVSS', 'polyreactivity (PSR sort gate)', 'high polyreactivity'),
  ('HVQHVESAVGLVQAGGRLRLSCAASGIIFRGNVMGWYIPAPGKERELVAAISGSGGRTYYADSVKGRFTISRDNAKNTVYLLMNSLKPEDTAVYYCAVSGTRTIWGISYRMYYWGQGTQVTVSS', 'polyreactivity (PSR sort gate)', 'high polyreactivity'),
  ('QVQLVESGGGLVQAGGSLRLSCAASGFIFRGYAMGWYRQAPGKERELVAAITSSGGDTYYADSVKGRFTISRDNAKNTVYLQMNSLKPEDTAVYYCAKRARRIGDVNMGSWGQGTQVTVSS', 'polyreactivity (PSR sort gate)', 'low polyreactivity'),
  ('QVQLVESGGGLVQAGGSLRLSCAASGSTLEFNAMGWYRQAPGKERELVAVINRSDGSTYYADSVKGRFTISRDNAKNTVYLQMNSLKPEDTADYYCAADRHQVSVISTEDYWGQGTQVTVSS', 'polyreactivity (PSR sort gate)', 'low polyreactivity');
